Listed next: entries and their corresponding growth.
System: UACC-257 melanoma
Assay: NCI-60 one-dose screen, 48 h (100 = growth as untreated, 0 = no growth, -100 = all killed)
Conditions: 10 µM unless noted
The panel holds about 83,000 compounds, 20% with a hit somewhere; the sample as a whole holds those more often.

{"columns": ["compound", "growth, %"],
 "data": [
  ["COc1ccc(C(=O)COc2ccc(/C=C3\\Oc4ccc5ccccc5c4C3=O)cc2)cc1", 98.3],
  ["O=C(Nc1ccc(Cl)cc1)Nc1nc2ccc(OC(F)(F)F)cc2o1", 114],
  ["Cc1ccc(C(=O)Cc2ccccc2)c(O)c1", 108],
  ["O=C(NC1CCS(=O)(=O)C1)c1ccc(C(=O)c2ccccc2)cc1 (stereo unspecified)", 82.7],
  ["COc1cc(-c2nnc(-c3nc(-c4cc(OC)c(OC)c(OC)c4)n4ccccc34)o2)ccc1N", 93.2],
  ["NC(=O)NS(=O)(=O)c1ccc(N2N=C(C(F)(F)F)CC2c2cc(C(F)(F)F)cc(C(F)(F)F)c2)cc1 (stereo unspecified)", 31.5]
]}

* * *

Test system: HT29 colon
Assay: NCI-60 one-dose screen, 48 h
Conditions: 10 µM unless noted
The panel holds about 83,000 compounds, 20% with a hit somewhere; the sample as a whole holds those more often. The source made the active and inactive calls. Rule for the calls: active = growth percent below 10; inactive = the rest.
Outcome codes: class 1 = active, class 0 = inactive

{"columns": ["smiles-str", "label-class"],
 "data": [
  ["COc1ccc2c(c1)[n+](=O)c(/C=C/C(=O)c1cc(OC)c(OC)c(OC)c1)c(C)n2[O-]", "class 0"],
  ["O=c1ncc(-c2ccc(C(F)(F)F)cc2)c(NC2CCCCCC2)[nH]1", "class 0"],
  ["C[C@H](C(=O)N[C@@H](Cc1ccc(-c2ccccc2)cc1)C(=O)NC1CC(C)(C)NC(C)(C)C1)c1ccc(-c2ccccc2)c(F)c1", "class 1"],
  ["O=C(/C=C/c1ccc([N+](=O)[O-])cc1)c1ccc2c3c(cccc13)CC2", "class 0"],
  ["CCc1ccc(-c2nc(SCC(=O)NC3CCCCC3)n[nH]2)cc1", "class 0"],
  ["FCc1ncc(-c2ccc(C(F)(F)F)cc2)c(NC2CCCCCC2)n1", "class 1"],
  ["COc1cc(OC)c2c(c1Cl)O[C@]1(C2=O)C(OCc2ccccc2)=CC(=O)C[C@H]1C", "class 1"],
  ["CC(=O)OCC(=O)[C@@]1(O)CC[C@H]2[C@@H]3CCC4=CC(=O)CC[C@]4(C)[C@@]3(F)[C@@H](O)C[C@@]21C", "class 0"],
  ["Cc1cc2c(cc1C)[n+](Cc1ccc3ccccc3n1)cn2Cc1ccc2ccccc2n1", "class 1"],
  ["CNc1nc(NC2CCCC2)nc(Sc2ccc(OC)cc2)n1", "class 1"]
]}

* * *

Tested on: HS 578T breast
Assay: NCI-60 one-dose screen, 48 h
Details: 10 µM unless noted
The panel holds about 83,000 compounds, 20% with a hit somewhere; the sample as a whole holds those more often. Calls of active or inactive are those of the source. How the source made its calls: active means growth percent below 10; inactive means the rest.
Outcomes: active, inactive

{"columns": ["compound", "label-class"],
 "data": [
  ["C=C(CN1CCc2c([nH]c3ccccc23)C1)c1ccc(C(=O)Nc2ccon2)cc1", "inactive"],
  ["O=C1/C(=C\\c2coc3ccccc3c2=O)c2ccccc2N1c1c(Cl)cccc1Cl", "inactive"],
  ["Cc1[nH]cnc1/C=C1\\SC(N2CCCCC2)=NC1=O", "inactive"],
  ["COc1cccc(-c2nc3cc(NC(=O)c4ccc(Cl)c(C#N)c4)ccc3o2)c1", "inactive"],
  ["CCOC(=O)OCC(=O)[C@@]1(O)CC[C@H]2[C@@H]3CCC4=CC(=O)CC[C@]4(C)[C@H]3[C@@H](O)C[C@@]21C", "inactive"],
  ["N[C@H](CS)C(=O)O", "inactive"],
  ["C/C(=C\\CCc1ccoc1)CC/C=C(\\C)CCCN1CCOCC1", "inactive"],
  ["COc1cccc(-c2nc(-c3ccc(N)cc3)co2)c1", "inactive"],
  ["O=C(/C=C/c1ccc([N+](=O)[O-])cc1)c1ccc2c3c(cccc13)CC2", "active"],
  ["C[C@]12CC[C@H](O)CC1=CC[C@@H]1[C@@H]2CC[C@]2(C)C(c3cccnc3)=CC[C@@H]12", "inactive"],
  ["COc1cc(/C=C/C(=O)C(C(=O)/C=C/c2ccc(OC(=O)CCNC34CC5CC(CC(C5)C3)C4)c(OC)c2)C(=O)CCNC23CC4CC(CC(C4)C2)C3)ccc1OC(=O)CCNC12CC3CC(CC(C3)C1)C2 (centres undefined)", "active"],
  ["NS(=O)(=O)c1ccc(N2CC(c3nc4ccccc4[nH]3)CC2=O)cc1 (centres undefined)", "inactive"],
  ["COc1ccc(C(=O)COc2cccc(/C=C3\\COc4ccc5ccccc5c4C3=O)c2)cc1", "inactive"],
  ["CN(C)CCCN=c1cc2c(=O)n(CCCN(C)C)c(=O)c3c(NCCCN(C)C)cc4c(O)n(CCCN(C)C)c(=O)c1c4c3-2", "active"],
  ["C[C@H]1O[C@@H](O[C@H]2[C@@H](O)C[C@H](O[C@H]3[C@@H](O)C[C@H](O[C@H]4CC[C@]5(C)C6C[C@@H](O)[C@]7(C)[C@@H](C8=CC(=O)OC8)CC[C@]7(O)C6CC[C@@H]5C4)O[C@@H]3C)O[C@@H]2C)C[C@H](O)[C@@H]1O (some centres undefined)", "active"],
  ["CO[C@H]1/C=C/O[C@@]2(C)Oc3c(C)c(O)c4c(O)c(c(/C=N/N5C(C)CN(Cc6ccc(C#N)cc6)CC5C)c(O)c4c3C2=O)NC(=O)/C(C)=C\\C=C\\[C@H](C)[C@H](O)[C@@H](C)[C@@H](O)[C@@H](C)[C@H](OC(C)=O)[C@@H]1C (some centres undefined)", "inactive"],
  ["CC1(C)CC2(C)CC(=O)C1C(C(=O)O)C2C(=O)O (centres undefined)", "inactive"],
  ["Oc1c(Cl)cc(Oc2cc(Cl)c(O)c(CN3CCOCC3)c2)cc1CN1CCOCC1", "inactive"],
  ["c1ccc(N2c3nc4ccccc4cc3Sc3cc4ccccc4nc32)nc1", "inactive"],
  ["CCOc1cc(/C=C/C(=O)C(C(=O)/C=C/c2ccc(OC(=O)CNc3nnc(C)s3)c(OCC)c2)C(=O)CNc2nnc(C)s2)ccc1OC(=O)CNc1nnc(C)s1", "inactive"],
  ["Cc1ccc(C(NC(=O)c2ccccc2)c2ccc3cccnc3c2O)cc1 (centres undefined)", "inactive"],
  ["Cc1cc(=O)oc2cc(OCCn3c(C)nn(-c4ccc(Cl)cc4)c3=O)ccc12", "inactive"],
  ["CCCCCCCCCCCCCCCCNC(=O)Nc1ccc2ccccc2c1", "inactive"],
  ["Cc1ccc2nc(-c3ccc(N(C)C)c(Br)c3)cn2c1", "inactive"],
  ["c1ccc(Nc2ccc(Nc3nc(-c4ccccc4)nc4ccccc34)cc2)cc1", "inactive"],
  ["O=C(Nc1ccc(Cl)cc1)Nc1ccccc1CNc1nc(Nc2ccc(OCCN3CCCC3)cc2)ncc1Cl", "inactive"],
  ["O=C(N/N=C/c1ccc(Cl)cc1Cl)c1ccccc1Nc1cccc(C(F)(F)F)c1", "inactive"],
  ["Clc1ccc2[nH]cc(-c3cncn3CCc3ccccc3)c2c1", "inactive"],
  ["Cc1ccc2c(c1)C(=O)/C(=C\\Nc1ccc(C(N)=O)cc1)C(O)O2 (centres undefined)", "inactive"]
]}

* * *

Tested on: SF-295 CNS
Test: NCI-60 one-dose screen, 48 h (100 = growth as untreated, 0 = no growth, -100 = all killed)
Settings: 10 µM unless noted
The panel holds about 83,000 compounds, 20% with a hit somewhere; the sample as a whole holds those more often. Active and inactive are the calls of the source. Rule for the calls: active = growth percent below 10; inactive = the rest.
Known growth of a selection of compounds
reported-metric: growth

{"columns": ["compound", "tested-on", "recorded-result"],
 "data": [
  ["CN1CCN(CCCCCN=c2cc3c(=O)n(CCCCCN4CCN(C)CC4)c(=O)c4c(NCCCCCN5CCN(C)CC5)cc5c(O)n(CCCCCN6CCN(C)CC6)c(=O)c2c5c4-3)CC1", "SF-295 CNS", "36.4% (inactive)"],
  ["COc1ccc(C2=NN(C=O)C(c3cccc(Nc4ccnc5cc(Cl)ccc45)c3)C2)cc1 (stereo not given)", "SF-295 CNS", "0.467% (active)"],
  ["N#Cc1ccccc1C#Cc1ccccc1C#Cc1ccc(OCCCCCCOc2ccc(C#Cc3ccccc3C#Cc3ccccc3C#N)cc2)cc1", "SF-295 CNS", "106% (inactive)"],
  ["CC(=O)/C(=C/c1ccc(Cl)cc1)C(=O)c1ccccc1", "SF-295 CNS", "60.2% (inactive)"],
  ["Cc1ccccc1NC(=O)N/C(N)=N/c1nc2ccccc2s1", "SF-295 CNS", "11.8% (inactive)"],
  ["Cc1ccc2nc3c(n2c1)C(=O)C(=O)c1ccccc1-3", "SF-295 CNS", "-71.1% (active)"],
  ["c1ccc(CN=C(NCc2ccccc2)NCc2ccccc2)cc1", "SF-295 CNS", "30% (inactive)"],
  ["Oc1c(Cl)cc(Oc2cc(Cl)c(O)c(CN3CCOCC3)c2)cc1CN1CCOCC1", "SF-295 CNS", "99.4% (inactive)"],
  ["COc1cnc2c(c1)C(=O)c1c-2n(CCCNC2=NCCS2)c(=O)c2cc(F)ccc12", "SF-295 CNS", "-5.74% (active)"],
  ["O=C(Nc1ccc2c(c1)C(=O)c1ccccc1-2)c1ccccc1", "SF-295 CNS", "103% (inactive)"]
]}

Sourced from PubChem BioAssay (NCI)
